# reported plasma membrane surface immunostaining intensity; entries follow
test system: HEK293T; assay: plasma membrane surface immunostaining intensity (anti-HA, deep receptor scanning) (arbitrary fluorescence units); higher = higher plasma membrane expression; settings: GPCR class: A
measured property: plasma membrane surface immunostaining intensity

[[record]]
monomer_sequence = "MANYTLAPEDEYDVLIEGELESDEAEQCDKYDAQALSAQLVPSLCSAVFVIGVLDNLLVVLILVKYKGLKRVENIYLLNLAVSNLCFLLTLPFWAHAGGDPMCKILIGLYFVGLYSETFFNCLLTVQRYLVFLHKGNFFSARRRVPCGIITSVLAWVTAILATLPEFVVYKPQMEDQKYKCAFSRTPFLPADETFWKHFLTLKMNISVLVLPLFIFTFLYVQMRKTLRFREQRYSLFKLVFAIMVVFLLMWAPYNIAFFLSTFKEHFSLSDCKSSYNLDKSVHITKLIATTHCCINPLLYAFLDGTFSKYLCRCFHLRSNTPLQPRGQSAQGTSREEPDHSTEV [CCRL2]"
numeric_readout = 569

[[record]]
monomer_sequence = "MKETRGYGGDAPFCTRLNHSYTGMWAPERSAEARGNLTRPPGSGEDCGSVSVAFPITMLLTGFVGNALAMLLVSRSYRRRESKRKKSFLLCIGWLALTDLVGQLLTTPVVIVVYLSKQRWEHIDPSGRLCTFFGLTMTVFGLSSLFIASAMAVERALAIRAPHWYASHMKTRATRAVLLGVWLAVLAFALLPVLGVGQYTVQWPGTWCFISTGRGGNGTSSSHNWGNLFFASAFAFLGLLALTVTFSCNLATIKALVSRCRAKATASQSSAQWGRITTETAIQLMGIMCVLSVCWSPLLIMMLKMIFNQTSVEHCKTHTEKQKECNFFLIAVRLASLNQILDPWVYLLLRKILLRKFCQIRYHTNNYASSSTSLPCQCSSTLMWSDHLER [PTGER3]"
numeric_readout = 684

[[record]]
monomer_sequence = "MSVCYRPPGNETLLSWKTSRATGTAFLLLAALLGLPGNGFVVWSLAGWRPARGRPLAATLVLHLALADGAVLLLTPLFVAFLTRQAWPLGQAGCKAVYYVCALSMYASVLLTGLLSLQRCLAVTRPFLAPRLRSPALARRLLLAVWLAALLLAVPAAVYRHLWRDRVCQLCHPSPVHAAAHLSLETLTAFVLPFGLMLGCYSVTLARLRGARWGSGRHGARVGRLVSAIVLAFGLLWAPYHAVNLLQAVAALAPPEGALAKLGGAGQAARAGTTALAFFSSSVNPVLYVFTAGDLLPRAGPRFLTRLFEGSGEARGGGRSREGTMELRTTPQLKVVGQGRGNGDPGGGMEKDGPEWDL [LTB4R2]"
numeric_readout = 4310


###

test system: HEK293T; assay: plasma membrane surface immunostaining intensity (anti-HA, deep receptor scanning) (arbitrary fluorescence units); higher = higher plasma membrane expression; settings: GPCR class: A (Olfactory)
measured property: plasma membrane surface immunostaining intensity

[[record]]
monomer_sequence = "MTRKNYTSLTEFVLLGLADTLELQIILFLFFLVIYTLTVLGNLGMILLIRIDSQLHTPMYFFLANLSFVDVCNSTTITPKMLADLLSEKKTISFAGCFLQMYFFISLATTECILFGLMAYDRYAAICRPLLYSLIMSRTVYLKMAAGAFAAGLLNFMVNTSHVSSLSFCDSNVIHHFFCDSPPLFKLSCSDTILKESISSILAGVNIVGTLLVILSSYSYVLFSIFSMHSGEGRHRAFSTCASHLTAIILFYATCIYTYLRPSSSYSLNQDKVASVFYTVVIPMLNPLIYSLRSKEVKKALANVISRKRTSSFL [OR5F1]"
numeric_readout = 192

[[record]]
monomer_sequence = "MGDNITSITEFLLLGFPVGPRIQMLLFGLFSLFYVFTLLGNGTILGLISLDSRLHAPMYFFLSHLAVVDIAYACNTVPRMLVNLLHPAKPISFAGRMMQTFLFSTFAVTECLLLVVMSYDLYVAICHPLRYLAIMTWRVCITLAVTSWTTGVLLSLIHLVLLLPLPFCRPQKIYHFFCEILAVLKLACADTHINENMVLAGAISGLVGPLSTIVVSYMCILCAILQIQSREVQRKAFCTCFSHLCVIGLFYGTAIIMYVGPRYGNPKEQKKYLLLFHSLFNPMLNPLICSLRNSEVKNTLKRVLGVERAL [OR2A7]"
numeric_readout = 117

[[record]]
monomer_sequence = "MRRNCTLVTEFILLGLTSRRELQILLFTLFLAIYMVTVAGNLGMIVLIQANAWLHMPMYFFLSHLSFVDLCFSSNVTPKMLEIFLSEKKSISYPACLVQCYLFIALVHVEIYILAVMAFDRYMAICNPLLYGSRMSKSVCSFLITVPYVYGALTGLMETMWTYNLAFCGPNEINHFYCADPPLIKLACSDTYNKELSMFIVAGWNLSFSLFIICISYLYIFPAILKIRSTEGRQKAFSTCGSHLTAVTIFYATLFFMYLRPPSKESVEQGKMVAVFYTTVIPMLNLIIYSLRNKNVKEALIKELSMKIYFS [OR5M8]"
numeric_readout = 115

[[record]]
monomer_sequence = "MESENRTVIREFILLGLTQSQDIQLLVFVLVLIFYFIILPGNFLIIFTIKSDPGLTAPLYFFLGNLAFLDASYSFIVAPRMLVDFLSAKKIISYRGCITQLFFLHFLGGGEGLLLVVMAFDRYIAICRPLHYPTVMNPRTCYAMMLALWLGGFVHSIIQVVLILRLPFCGPNQLDNFFCDVPQVIKLACTDTFVVELLMVFNSGLMTLLCFLGLLASYAVILCRIRGSSSEAKNKAMSTCITHIIVIFFMFGPGIFIYTRPFRAFPADKVVSLFHTVIFPLLNPVIYTLRNQEVKASMKKVFNKHIA [OR4N2]"
numeric_readout = 134

[[record]]
monomer_sequence = "MEPLNRTEVSEFFLKGFSGYPALEHLLFPLCSAMYLVTLLGNTAIMAVSVLDIHLHTPVYFFLGNLSTLDICYTPTFVPLMLVHLLSSRKTISFAVCAIQMCLSLSTGSTECLLLAITAYDRYLAICQPLRYHVLMSHRLCVLLMGAAWVLCLLKSVTEMVISMRLPFCGHHVVSHFTCKILAVLKLACGNTSVSEDFLLAGSILLLPVPLAFICLSYLLILATILRVPSAARCCKAFSTCLAHLAVVLLFYGTIIFMYLKPKSKEAHISDEVFTVLYAMVTTMLNPTIYSLRNKEVKEAARKVWGRSRASR [OR13J1]"
numeric_readout = 140

[[record]]
monomer_sequence = "MGMEGLLQNSTNFVLTGLITHPAFPGLLFAVVFSIFVVAITANLVMILLIHMDSRLHTPMYFLLSQLSIMDTIYICITVPKMLQDLLSKDKTISFLGCAVQIFYLTLIGGEFFLLGLMAYDRYVAVCNPLRYPLLMNRRVCLFMVVGSWVGGSLDGFMLTPVTMSFPFCRSREINHFFCEIPAVLKLSCTDTSLYETLMYACCVLMLLIPLSVISVSYTHILLTVHRMNSAEGRRKAFATCSSHIMVVSVFYGAAFYTNVLPHSYHTPEKDKVVSAFYTILTPMLNPLIYSLRNKDVAAALRKVLGRCGSSQSIRVATVIRKG [OR2T35]"
numeric_readout = 126

[[record]]
monomer_sequence = "MGNWSTVTEITLIAFPALLEIRISLFVVLVVTYTLTATGNITIISLIWIDHRLQTPMYFFLSNLSFLDILYTTVITPKLLACLLGEEKTISFAGCMIQTYFYFFLGTVEFILLAVMSFDRYMAICDPLHYTVIMNSRACLLLVLGCWVGAFLSVLFPTIVVTRLPYCRKEINHFFCDIAPLLQVACINTHLIEKINFLLSALVILSSLAFTTGSYVYIISTILRIPSTQGRQKAFSTCASHITVVSIAHGSNIFVYVRPNQNSSLDYDKVAAVLITVVTPLLNPFIYSLRNEKVQEVLRETVNRIMTLIQRKT [OR6M1]"
numeric_readout = 127

[[record]]
monomer_sequence = "MERTNDSTSTEFFLVGLSAHPKLQTVFFVLILWMYLMILLGNGVLISVIIFDSHLHTPMYFFLCNLSFLDVCYTSSSVPLILASFLAVKKKVSFSGCMVQMFISFAMGATECMILGTMALDRYVAICYPLRYPVIMSKGAYVAMAAGSWVTGLVDSVVQTAFAMQLPFCANNVIKHFVCEILAILKLACADISINVISMTGSNLIVLVIPLLVISISYIFIVATILRIPSTEGKHKAFSTCSAHLTVVIIFYGTIFFMYAKPESKASVDSGNEDIIEALISLFYGVMTPMLNPLIYSLRNKDVKAAVKNILCRKNFSDGK [OR13C8]"
numeric_readout = 129

[[record]]
monomer_sequence = "MQGENFTIWSIFFLEGFSQYPGLEVVLFVFSLVMYLTTLLGNSTLILITILDSRLKTPMYLFLGNLSFMDICYTSASVPTLLVNLLSSQKTIIFSGCAVQMYLSLAMGSTECVLLAVMAYDRYVAICNPLRYSIIMNRCVCARMATVSWVTGCLTALLETSFALQIPLCGNLIDHFTCEILAVLKLACTSSLLMNTIMLVVSILLLPIPMLLVCISYIFILSTILRITSAEGRNKAFSTCGAHLTVVILYYGAALSMYLKPSSSNAQKIDKIISLLYGVLTPMLNPIIYSLRNKEVKDAMKKLLGKITLHQTHEHL [OR2K2]"
numeric_readout = 144

